Molecular target: UniProt:Q07343
Sequence (Q07343 whole entry, species assumed): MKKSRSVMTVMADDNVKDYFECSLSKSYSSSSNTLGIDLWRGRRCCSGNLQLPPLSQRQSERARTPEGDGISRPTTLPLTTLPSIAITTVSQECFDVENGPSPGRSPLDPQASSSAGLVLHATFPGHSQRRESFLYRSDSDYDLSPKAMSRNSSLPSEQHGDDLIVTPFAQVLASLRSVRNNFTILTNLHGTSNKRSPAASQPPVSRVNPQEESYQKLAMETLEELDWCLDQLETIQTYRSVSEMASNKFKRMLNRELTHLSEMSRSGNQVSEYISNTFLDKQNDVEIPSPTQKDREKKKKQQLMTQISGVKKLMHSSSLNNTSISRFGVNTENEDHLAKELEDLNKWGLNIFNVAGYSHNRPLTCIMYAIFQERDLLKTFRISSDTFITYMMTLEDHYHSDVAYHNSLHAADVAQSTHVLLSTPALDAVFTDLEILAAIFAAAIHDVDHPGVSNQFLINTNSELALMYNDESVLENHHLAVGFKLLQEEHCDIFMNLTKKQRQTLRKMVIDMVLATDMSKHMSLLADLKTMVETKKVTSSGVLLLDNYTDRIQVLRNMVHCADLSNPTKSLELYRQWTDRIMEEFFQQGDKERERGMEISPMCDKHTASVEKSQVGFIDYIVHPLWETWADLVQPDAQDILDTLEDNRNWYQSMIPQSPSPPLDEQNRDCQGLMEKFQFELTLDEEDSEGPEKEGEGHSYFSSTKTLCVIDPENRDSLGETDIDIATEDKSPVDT
Assay: Scintillation Proximity Assay (SPA) of PDE4B enzyme activity ([H3]-cAMP cleavage)
Type: biochemical
Conditions: test substance 1 μM; one-hour incubation of [H3]-cAMP with PDE4B enzyme at 30° C.
assay.endpoint: inhibition at 1 µM (%)

| molecule | readout.number |
| --- | --- |
| O=C1Nc2ccccc2C2(CCN(c3nc4c(c(NC5CCOCC5)n3)[S+]([O-])CC4)CC2)O1 (stereo not shown) | 94 |
| CN1C(=O)Nc2ccccc2C12CCN(c1nc3c(c(Nc4cccc(F)c4)n1)[S+]([O-])CC3)CC2 (stereo not shown) | 94 |
| CC(C)[C@H](CO)Nc1nc(N2CCC(c3ccncc3)CC2)nc2c1[S+]([O-])CC2 (stereo partly shown) | 83 |
| CN1C[C@@H](Nc2nc(N3CCC(c4noc5ccccc45)CC3)nc3c2[S+]([O-])CC3)CCC1=O (stereo partly shown) | 97 |
| [O-][S+]1CCc2nc(N3CCC(c4nc(-c5cccnc5)no4)CC3)nc(NC3CCOCC3)c21 (stereo not shown) | 94 |
| COC(=O)c1ccc(C2CCN(c3nc4c(c(N[C@@H](CO)C(C)C)n3)[S+]([O-])CC4)CC2)cc1 (stereo partly shown) | 94 |
| [O-][S+]1CCc2nc(N3CCC(c4ccc(F)cc4)CC3)nc(NC3CCOCC3)c21 (stereo not shown) | 93 |
